Just for reference, PubChem BioAssay (EPA / NIEHS) is where these values come from.

- Read-out: Monokine induced gamma interferon (MIG), CXCL9 (gene 4283)
- METHOD SUMMARY: BSK_hDFCGF_MIG: BioMAP Diversity Plus: hDFCGF Assay for Monokine induced gamma interferon (MIG) Biomarker Activity (AID 2283063)
- CONDITION LABEL: primary human foreskin fibroblasts; actives raise or lower the signal
Calls of active or inactive are those of the source. How the source made its calls: active means hit-call score of the fitted dose curve at least 0.9, where 1 is the maximum; inactive means score below 0.9.
I would appreciate it if you answered using one of these outcomes: label 1 (active), label 0 (inactive)

Reference set (3 entries):
### Prompt Test call, this compound: c1ccc2c(c1)-c1cccc3cccc-2c13
### Response label 0

### Prompt Test call, this compound: ClC1=C(Cl)C2(Cl)C3C(Cl)C=CC3C1(Cl)C2(Cl)Cl (centres undefined)
### Response label 1

### Prompt Test call, this compound: c1ccc2c(c1)oc1ccccc12
### Response label 0

We now examine a further compound.
### Prompt Test call, this compound: Brc1ccc(Oc2ccccc2)cc1
### Response label 0

###

- METHOD SUMMARY: CCTE_Shafer_MEA_acute_cross_correlation_HWHM: CCTE's Neural Acute Assay for Cross Correlation at Half Width at Half Maximum, Shafer Lab (AID 2284026);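 further: percent change per well from pre-dose baseline in spike cross-correlogram half width; hits are a decrease in cross-correlogram half width relative to DMSO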
Calls of active or inactive are those of the source. The calls were made as follows: active = hit-call score of the fitted dose curve at least 0.9, where 1 is the maximum; inactive = score below 0.9.
I would appreciate it if you answered using one of these outcomes: active, inactive

### Prompt Test call, this compound: ClC1=C(Cl)C2(Cl)C3C(Cl)C=CC3C1(Cl)C2(Cl)Cl (centres undefined)
### Response inactive

Others:
### Prompt Test call, this compound: CC(C)(O)c1cnn2c(-c3ccc(F)c(-c4c(F)cccc4C#N)c3)cnc2n1
### Response active

### Prompt Test call, this compound: O=Cc1ccco1
### Response inactive

### Prompt Test call, this compound: N#CC(Br)Br
### Response inactive

### Prompt Test call, this compound: CCCCCCCCn1sccc1=O
### Response active

### Prompt Test call, this compound: ClC1=C(Cl)[C@]2(Cl)[C@H]3[C@H]([C@@H]4C=C[C@H]3C4)[C@@]1(Cl)C2(Cl)Cl
### Response inactive

###

- METHOD SUMMARY: ATG_AP_1_CIS: Attagene CIS-FACTORIAL HepG2 Assay for human Activator Protein 1 (AP-1) (AID 2282931)
- CONDITION LABEL: HepG2 Attagene cis-factorial AP-1 reporter mRNA; actives raise or lower the signal
Activity calls are given as the source filed them. The calls were made as follows: active = hit-call score of the fitted dose curve at least 0.9, where 1 is the maximum; inactive = score below 0.9.
I would appreciate it if you answered using one of these outcomes: 1 (yes) (active), 0 (no) (inactive)

Reference set (3 entries):
### Prompt Test call, this compound: c1ccc2c(c1)oc1ccccc12
### Response 0 (no)

### Prompt Test call, this compound: c1ccc2c(c1)-c1cccc3cccc-2c13
### Response 0 (no)

### Prompt Test call, this compound: CC(C)(C)OOC(C)(C)CCC(C)(C)OOC(C)(C)C
### Response 1 (yes)

Others:
### Prompt Test call, this compound: O=[N+]([O-])c1ccc(Oc2ccc(Cl)cc2Cl)cc1
### Response 0 (no)

### Prompt Test call, this compound: CCC(C)c1ccc(O)cc1 (centres undefined)
### Response 1 (yes)

### Prompt Test call, this compound: ClC1=C(Cl)[C@]2(Cl)[C@H]3[C@H]([C@@H]4C=C[C@H]3C4)[C@@]1(Cl)C2(Cl)Cl
### Response 1 (yes)

### Prompt Test call, this compound: CCC[CH2][Sn]([Cl])([CH2]CCC)[CH2]CCC
### Response 1 (yes)

### Prompt Test call, this compound: [As]#[In]
### Response 0 (no)

### Prompt Test call, this compound: OCCCBr
### Response 0 (no)

### Prompt Test call, this compound: CS(=O)(=O)NC(=O)c1cc(Oc2ccc(C(F)(F)F)cc2Cl)ccc1[N+](=O)[O-]
### Response 0 (no)

### Prompt Test call, this compound: CCCCC(CC)COC(=O)c1ccc(C(=O)OCC(CC)CCCC)c(C(=O)OCC(CC)CCCC)c1 (centres undefined)
### Response 0 (no)

### Prompt Test call, this compound: CCC12COCN1COC2
### Response 0 (no)

### Prompt Test call, this compound: N#CC(Br)Br
### Response 0 (no)

### Prompt Test call, this compound: COP(=S)(OC)SCN1C(=O)c2ccccc2C1=O
### Response 0 (no)

###

- Read-out: urokinase plasminogen activator (uPA), PLAU (gene 5328)
- METHOD SUMMARY: BSK_KF3CT_uPA: BioMAP Diversity Plus: KF3CT Assay for urokinase plasminogen activator (uPA) Biomarker Activity (AID 2283075)
- CONDITION LABEL: primary human keratinocytes with fibroblasts; actives raise or lower the signal
Calls of active or inactive are those of the source. How the source made its calls: active means hit-call score of the fitted dose curve at least 0.9, where 1 is the maximum; inactive means score below 0.9.
I would appreciate it if you answered using one of these outcomes: active, inactive

### Prompt Test call, this molecule: COC(=O)c1ccccc1N
### Response inactive

### Prompt Test call, this molecule: CO[C@@H]1[C@H](OC(=O)NC(=O)CCl)CC[C@]2(CO2)[C@H]1[C@@]1(C)O[C@@H]1CC=C(C)C
### Response inactive

### Prompt Test call, this molecule: CC(C)(OOC(C)(C)c1ccccc1)c1ccccc1
### Response inactive

Others:
### Prompt Test call, this molecule: CCC[CH2][Sn]([Cl])([CH2]CCC)[CH2]CCC
### Response active

### Prompt Test call, this molecule: ClC1=C(Cl)C2(Cl)C3C(Cl)C=CC3C1(Cl)C2(Cl)Cl (centres undefined)
### Response active

### Prompt Test call, this molecule: [O-][Cl+]O
### Response inactive

### Prompt Test call, this molecule: CNC(=O)Oc1cccc2c1OC(C)(C)C2
### Response inactive

### Prompt Test call, this molecule: ClC1=C(Cl)[C@]2(Cl)[C@H]3[C@H]([C@@H]4C=C[C@H]3C4)[C@@]1(Cl)C2(Cl)Cl
### Response active

### Prompt Test call, this molecule: Cc1ccc([N+](=O)[O-])cc1
### Response inactive

### Prompt Test call, this molecule: [Cl-].[Cl-].[Hg+2]
### Response active

### Prompt Test call, this molecule: O=C(N[C@H](c1ccccc1)[C@@H]1CN2CCC1CC2)c1c(Cl)ccc(C(F)(F)F)c1Cl
### Response active

### Prompt Test call, this molecule: O=C1CCCO1
### Response inactive

### Prompt Test call, this molecule: O=C(Oc1ccc(Br)cc1)N1CCN2CCC1CC2
### Response inactive

### Prompt Test call, this molecule: Nc1cc(Cl)cc(C(=O)O)c1Cl
### Response inactive

###

- Read-out: TIMP metallopeptidase inhibitor 1 (TIMP1), TIMP1 (gene 7076)
- METHOD SUMMARY: BSK_hDFCGF_TIMP1: BioMAP Diversity Plus: hDFCGF Assay for TIMP metallopeptidase inhibitor 1 (TIMP1) Biomarker Activity (AID 2283062)
- CONDITION LABEL: primary human foreskin fibroblasts; actives raise or lower the signal
Activity calls are given as the source filed them. Rule for the calls: active = hit-call score of the fitted dose curve at least 0.9, where 1 is the maximum; inactive = score below 0.9.
I would appreciate it if you answered using one of these outcomes: 1 for active, 0 for inactive

Reference set (5 entries):
### Prompt Test call, this molecule: OCCOCCO
### Response 0

### Prompt Test call, this molecule: Oc1ccccc1Cl
### Response 0

### Prompt Test call, this molecule: ClCCOCCCl
### Response 0

### Prompt Test call, this molecule: CCCCC(CC)COC(=O)c1ccc(C(=O)OCC(CC)CCCC)c(C(=O)OCC(CC)CCCC)c1 (stereo not drawn)
### Response 0

### Prompt Test call, this molecule: CO[C@@H]1[C@H](OC(=O)NC(=O)CCl)CC[C@]2(CO2)[C@H]1[C@@]1(C)O[C@@H]1CC=C(C)C
### Response 1

Others:
### Prompt Test call, this molecule: [As]#[In]
### Response 0

### Prompt Test call, this molecule: c1ccc(N=Nc2ccccc2)cc1
### Response 0

### Prompt Test call, this molecule: [Cl-].[Cl-].[Hg+2]
### Response 1

###

- METHOD SUMMARY: CCTE_Deisenroth_AIME_384WELL_CTox_Inactive: Cytotoxicity Assessment (CTOX) in CCTE's 384-well Estrogen Receptor Transactivation Assay without AIME metabolic competence (metabolism negative), Deisenroth Lab (AID 2284039);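 further: cell viability via live-cell protease substrate cleaved to fluorescent probe; cells exposed 24 h to medium preincubated 2 h with alginate-water beads without S9; loss of fluorescence signal means loss of viability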
Inconclusive results are not listed. Activity calls are given as the source filed them. The calls were made as follows: active = hit-call score of the fitted dose curve at least 0.9, where 1 is the maximum; inconclusive = response in the unintended direction; inactive = score below 0.9.
I would appreciate it if you answered using one of these outcomes: Y = active, N = inactive

### Prompt Test call, this compound: Cc1cccc(N)c1N
### Response N

### Prompt Test call, this compound: CCCCCCCCOC(=O)c1ccc(C(=O)OCCCCCCCC)c(C(=O)OCCCCCCCC)c1
### Response N

### Prompt Test call, this compound: c1ccc(N=Nc2ccccc2)cc1
### Response N

### Prompt Test call, this compound: Cc1ccc([N+](=O)[O-])cc1
### Response N

###

- ASSAYED TARGET: Heat shock factor protein 1 (Homo sapiens) (UniProt Q00613)
- Sequence (Q00613 whole entry, looked up): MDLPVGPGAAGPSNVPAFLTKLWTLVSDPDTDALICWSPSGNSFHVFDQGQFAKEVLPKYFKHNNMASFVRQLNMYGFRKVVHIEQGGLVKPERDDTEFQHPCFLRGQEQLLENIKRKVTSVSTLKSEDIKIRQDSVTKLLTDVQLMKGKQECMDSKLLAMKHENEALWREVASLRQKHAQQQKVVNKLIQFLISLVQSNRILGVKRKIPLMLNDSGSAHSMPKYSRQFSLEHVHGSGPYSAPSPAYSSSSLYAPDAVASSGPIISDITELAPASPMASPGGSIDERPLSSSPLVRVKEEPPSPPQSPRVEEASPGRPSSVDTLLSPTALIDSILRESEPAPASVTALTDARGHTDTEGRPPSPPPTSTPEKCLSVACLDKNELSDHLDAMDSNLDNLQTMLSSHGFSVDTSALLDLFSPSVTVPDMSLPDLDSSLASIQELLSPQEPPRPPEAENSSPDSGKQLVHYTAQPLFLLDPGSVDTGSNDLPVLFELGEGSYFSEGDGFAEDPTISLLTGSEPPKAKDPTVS
- METHOD SUMMARY: ATG_HSE_CIS: Attagene CIS-FACTORIAL HepG2 Assay for human Heat Shock Transcription Factor 1 (HSE) (AID 2282953)
- CONDITION LABEL: HepG2 HSE cis-reporter, Attagene RNA transcription; actives raise or lower the signal
Activity calls are given as the source filed them. Rule for the calls: active = hit-call score of the fitted dose curve at least 0.9, where 1 is the maximum; inactive = score below 0.9.
I would appreciate it if you answered using one of these outcomes: t for active, f for inactive

### Prompt Test call, this compound: Clc1ccc(C(c2ccc(Cl)cc2)C(Cl)Cl)cc1
### Response t

### Prompt Test call, this compound: Nc1ccc(Cc2ccc(N)cc2)cc1
### Response f

### Prompt Test call, this compound: CC(C)(O)c1cnn2c(-c3ccc(F)c(-c4c(F)cccc4C#N)c3)cnc2n1
### Response t

### Prompt Test call, this compound: O=C(Nc1ccccc1)c1ccccc1I
### Response f

### Prompt Test call, this compound: C1=Cc2cccc3cccc1c23
### Response f

### Prompt Test call, this compound: Nc1cc(Cl)cc(C(=O)O)c1Cl
### Response f

### Prompt Test call, this compound: CN(C)c1ccccc1
### Response f

### Prompt Test call, this compound: CCC12COCN1COC2
### Response f

### Prompt Test call, this compound: CCCSC(=O)N(CCC)CCC
### Response f

### Prompt Test call, this compound: [As]#[In]
### Response f

### Prompt Test call, this compound: CC(C)N(Cc1ccccc1)C(=O)C(C)(C)C
### Response f

### Prompt Test call, this compound: c1ccc(N=Nc2ccccc2)cc1
### Response f

### Prompt Test call, this compound: ClC1=C(Cl)[C@]2(Cl)[C@H]3[C@H]([C@@H]4C=C[C@H]3C4)[C@@]1(Cl)C2(Cl)Cl
### Response f

### Prompt Test call, this compound: CC(C)(C)OOC(=O)c1ccccc1
### Response f
